Test: endothelial E-selectin expression blockers – imaging, HUVEC, immunofluorescence, MLSMR starter and 10KST1 sets, primary screen (AID 487);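 also: 100% = median nuclei count of all wells on the same plate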
Conditions: HUVEC TNFalpha-induced E-selectin immunofluorescence imaging, at 2 µM; measured here: cell number, toxicity
Listed next: entries and their corresponding nuclei count.

>  <compound>
C=CCOC(=O)C(C#N)c1nc2ccccc2nc1N1CCN(Cc2ccccc2)CC1 (stereo not drawn)

>  <unit_of_measure>
%

>  <nuclei count>
181

$$$$
>  <compound>
O=C(O)C1C2C=CC(O2)C1C(=O)NCc1ccc(Cl)cc1 (stereo not drawn)

>  <unit_of_measure>
%

>  <nuclei count>
100

$$$$
>  <compound>
Cc1ccccc1CS(=O)(=O)Cc1ccc(C(=O)NCCCN2CCOCC2)o1

>  <unit_of_measure>
%

>  <nuclei count>
120

$$$$
>  <compound>
CCCc1nc2ccccc2c2nc(N)nn12

>  <unit_of_measure>
%

>  <nuclei count>
101

$$$$
>  <compound>
CC(C)(C)Nc1nc(OCC(F)(F)F)nc(OCC(F)(F)F)n1

>  <unit_of_measure>
%

>  <nuclei count>
114

$$$$
>  <compound>
CCCCC(CC)C(=O)Nc1ccc(Cl)cn1 (stereo not drawn)

>  <unit_of_measure>
%

>  <nuclei count>
117

$$$$
>  <compound>
CCCOc1cccc(CN2CCCCC2c2cccnc2)c1 (stereo not drawn)

>  <unit_of_measure>
%

>  <nuclei count>
153

$$$$
>  <compound>
Cc1cncn1CCc1nc2c3ccccc3nc(=S)n2[nH]1

>  <unit_of_measure>
%

>  <nuclei count>
110

$$$$
>  <compound>
O=C1c2cccnc2C(O)N1Cc1ccc(F)cc1 (stereo not drawn)

>  <unit_of_measure>
%

>  <nuclei count>
116

$$$$
>  <compound>
CC(=O)c1ccc(NC(=O)c2noc3c2CCCCC3)cc1

>  <unit_of_measure>
%

>  <nuclei count>
118

$$$$
>  <compound>
c1csc(-c2nc3nc4ccccc4nc3n2Cc2ccc3c(c2)OCO3)c1

>  <unit_of_measure>
%

>  <nuclei count>
108

$$$$
>  <compound>
CCc1cccc(NS(=O)(=O)c2c(C)n[nH]c2C)c1

>  <unit_of_measure>
%

>  <nuclei count>
111

$$$$
>  <compound>
O=C(Cn1c(SCC(=O)N2CCCc3ccccc32)nc2ccccc21)N1CCCC1

>  <unit_of_measure>
%

>  <nuclei count>
124

$$$$
>  <compound>
Cc1c(/C(O)=C2/C(=O)C(=O)N(CCN3CCOCC3)C2c2cccs2)cnn1-c1ccccc1 (stereo not drawn)

>  <unit_of_measure>
%

>  <nuclei count>
97.7

$$$$
>  <compound>
Cc1nnc(C)n1/N=C/c1cccc(Oc2ccccc2)c1

>  <unit_of_measure>
%

>  <nuclei count>
106

$$$$
>  <compound>
CCCCOc1ccccc1P(=O)(O)CP(=O)(c1ccccc1)c1ccccc1

>  <unit_of_measure>
%

>  <nuclei count>
192

$$$$
>  <compound>
COc1ccc(N2CCN(C(c3cccc(OC)c3OC)c3nnnn3C3CCCC3)CC2)cc1 (stereo not drawn)

>  <unit_of_measure>
%

>  <nuclei count>
76.2

$$$$
>  <compound>
COc1cc(C(=O)N2CCC(c3nc(-c4cccnc4)no3)CC2)cc(OC)c1OC

>  <unit_of_measure>
%

>  <nuclei count>
102

$$$$
>  <compound>
C=CCN1C(=O)/C(=C2/Sc3ccccc3N2C)SC1=Nc1c(C)n[nH]c1C

>  <unit_of_measure>
%

>  <nuclei count>
106

$$$$
>  <compound>
Cc1ccc(C)c(SCC(=O)Nc2nnc(-c3ccccc3)o2)c1

>  <unit_of_measure>
%

>  <nuclei count>
124

$$$$
>  <compound>
COc1ccc(-n2c(SCC(=O)Nc3ccc(C(=O)O)cc3)nnc2-c2cccs2)cc1

>  <unit_of_measure>
%

>  <nuclei count>
150

$$$$
>  <compound>
COc1ccc(CCNS(=O)(=O)c2ccc3c(c2)CCN3C(=O)CCC(=O)O)cc1OC

>  <unit_of_measure>
%

>  <nuclei count>
121

$$$$
>  <compound>
Cc1cccc2cc(C#N)c(NCCNC(=O)NC3CCCCC3)nc12

>  <unit_of_measure>
%

>  <nuclei count>
176

$$$$

* * *

Reported values of inhibition of aggregation for individual entries
Assay: reduction of polyQ htt aggregates in cells – imaging, exon1htt(103Q)mCFP cells, high-content imaging, primary screen (AID 483);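 also: compound exposure lasted 3 days before fixation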
Conditions: exon1htt(103Q)mCFP cell line, aggregate imaging, at 2 µM; stronger effect = higher value

>  <molecule>
Cn1nnnc1SCC(=O)Nc1ccccc1C(=O)NCc1ccccc1

>  <inhibition of aggregation [%]>
0.2

$$$$
>  <molecule>
COc1cccc(OC)c1C(=O)N1CCOCC1

>  <inhibition of aggregation [%]>
7.2

$$$$
>  <molecule>
COC(=O)c1c(-c2ccc(F)cc2)noc1N

>  <inhibition of aggregation [%]>
-3.7

$$$$
>  <molecule>
CC(C)(C)OC(=O)N1CCC(C(=O)N[C@H](Cc2ccccc2)C(=O)O)CC1

>  <inhibition of aggregation [%]>
19.6

$$$$
>  <molecule>
CCOC(=O)CSc1nnc(CNC(=O)c2ccc(OC)c(OC)c2)n1C

>  <inhibition of aggregation [%]>
-1.1

$$$$
>  <molecule>
CCn1c(=N)n(CC(O)COc2cccc(C)c2)c2ccccc21 (stereo unspecified)

>  <inhibition of aggregation [%]>
-15.2

$$$$

* * *

Assay: reduction of polyQ htt aggregates in cells – imaging, exon1htt(103Q)mCFP cells, high-content imaging, primary screen (AID 483);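 also: compound exposure lasted 3 days before fixation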;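 as to nuclei count: percent of the per-plate median nuclei count of sample wells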
Conditions: exon1htt(103Q)mCFP cell line, aggregate imaging, at 2 µM; measured here: cell count, toxicity
quantity: nuclei count (%)

>  <compound>
CCOC(=O)CSc1nc2ccccc2c(=O)n1NC(=O)c1ccccc1

>  <val>
119

$$$$
>  <compound>
O=C(Nc1ccncc1)c1cncc(Br)c1

>  <val>
98

$$$$
>  <compound>
COC(=O)Cn1cnc2c(nnn2-c2ccc(C)cc2)c1=O

>  <val>
100

$$$$
>  <compound>
COC(=O)c1ccc(N2C(=O)CC(N3CCN(C(=O)c4ccco4)CC3)C2=O)cc1 (stereo unspecified)

>  <val>
103

$$$$
>  <compound>
COc1ccc(-c2nn3c(-c4ccncc4)nnc3s2)cc1OC

>  <val>
90.8

$$$$
>  <compound>
Cc1ccc2c(c1)c1c(n2CC(O)Cn2c(C)nc3ccccc32)/C(=N\O)CCC1 (stereo unspecified)

>  <val>
14.1

$$$$

* * *

Test: inhibitors of TNFa-induced NFkB p65 translocation, primary screen, imaging, HUVEC, MLSMR starter and 10KST1 sets (AID 438);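 also: compound added about 3h40 before a 20 min TNFalpha stimulation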
Conditions: HUVEC TNFa-induced p65 nuclear translocation; measured here: nuclei count (cytotoxicity indicator), at 2.08 µM
Parameter: cell count. Scope: all listed entries.

>  <compound>
COc1ccc(C2C(=O)N(C3CCCCC3)CC(=O)N2Cc2ccco2)cc1 (stereo unspecified)

>  <cell count>
632

$$$$
>  <compound>
N#Cc1c(NC(=O)CSc2nc(N)cc(=O)[nH]2)sc2c1CCCCCC2

>  <cell count>
728

$$$$
>  <compound>
c1nnc(NC2=NCCCCC2)s1

>  <cell count>
630

$$$$
>  <compound>
CCN(CC)CCNC(=O)C1CCN(S(=O)(=O)N2CCCCC2)CC1

>  <cell count>
634

$$$$
>  <compound>
O=C(Nc1cccc(F)c1)N1CC=C(n2c(=O)[nH]c3ccccc32)CC1

>  <cell count>
312

$$$$
>  <compound>
Cn1cc(CC(=O)Nc2cccc(C#N)c2)c2ccccc21

>  <cell count>
414

$$$$
>  <compound>
Nc1nc(-c2ccccc2Br)cs1

>  <cell count>
392

$$$$
>  <compound>
COc1ccc(N2C(=O)CC(NC3CC3)C2=O)cc1 (stereo unspecified)

>  <cell count>
416

$$$$
>  <compound>
CC1(C)Cc2nc3oc4c(N(CCO)Cc5ccccc5)ncnc4c3cc2CO1

>  <cell count>
558

$$$$
>  <compound>
CCOc1ccc(NC(=O)CN2CCN(CC(=O)Nc3ccc(F)c(F)c3)CC2)cc1

>  <cell count>
409

$$$$
>  <compound>
COc1ccc(N2CCN(C(c3cccc(OC)c3OC)c3nnnn3C3CCCC3)CC2)cc1 (stereo unspecified)

>  <cell count>
709

$$$$
>  <compound>
CCN1CCN(C(=O)c2ccc3c(=O)n(C4CCCC4)c(=S)[nH]c3c2)CC1

>  <cell count>
507

$$$$
>  <compound>
Cc1ccc(S(=O)(=O)c2nc(-c3ccco3)oc2SCC(=O)NCC2CCCO2)cc1 (stereo unspecified)

>  <cell count>
822

$$$$
>  <compound>
COC(=O)c1ccc(CSc2ncnc3c2nnn3-c2ccc(OC)cc2)o1

>  <cell count>
444

$$$$
>  <compound>
N#C/C(C(=O)N1CCOCC1)=C1/SC=C(c2ccccc2)N1c1ccccc1

>  <cell count>
327

$$$$
>  <compound>
Cn1c(=O)c2c(nc(SCC(=O)NCc3ccc4c(c3)OCO4)n2Cc2ccccc2)n(C)c1=O

>  <cell count>
641

$$$$
>  <compound>
O=C(OCc1nnc(-c2ccccc2)o1)c1ccc(S(=O)(=O)NCc2ccco2)cc1

>  <cell count>
722

$$$$
>  <compound>
O=C(COn1nnc2ccc(C(F)(F)F)cc21)Nc1nnc(-c2ccccc2)o1

>  <cell count>
704

$$$$
>  <compound>
O=c1c2c3nc4ccccc4nc3n(CC3CCCO3)c2ncn1CCc1ccccc1 (stereo unspecified)

>  <cell count>
440

$$$$
>  <compound>
O=S(=O)(c1ccccc1)N1CCSC1c1ccco1 (stereo unspecified)

>  <cell count>
444

$$$$
>  <compound>
CC(=O)c1ccc(NC(=O)c2noc3c2CCCCC3)cc1

>  <cell count>
214

$$$$
>  <compound>
COc1ccc2oc(C)c(C(=O)Cn3ccnc3)c2c1

>  <cell count>
488

$$$$
>  <compound>
O=C(O)c1cnn2c1NC(c1ccc(F)cc1)CC2C(F)(F)F (stereo unspecified)

>  <cell count>
613

$$$$
>  <compound>
OCCN1CCN(CC(O)COc2ccc3ccccc3c2)CC1 (stereo unspecified)

>  <cell count>
581

$$$$
>  <compound>
CC(=O)Nc1ccc(S(=O)(=O)n2cnc(C)c2)cc1

>  <cell count>
697

$$$$
>  <compound>
CC(C(=O)N1CC2(C)CC1CC(C)(C)C2)N1C(=O)c2ccccc2C1=O (stereo unspecified)

>  <cell count>
239

$$$$
>  <compound>
CN(C(=O)CSc1nc2c(c(=O)[nH]1)CCCC2)C1CCCCC1

>  <cell count>
820

$$$$
>  <compound>
CS(=O)(=O)c1ncc(Cl)c(C(=O)Nc2ccc(N3CCOCC3)cc2)n1

>  <cell count>
351

$$$$
>  <compound>
COc1ccc(S(=O)(=O)N2CCN(C3CCCCCCC3)CC2)cc1

>  <cell count>
360

$$$$
>  <compound>
COCCSc1ccccc1C(=O)Nc1cc(C)on1

>  <cell count>
587

$$$$
>  <compound>
COC(=O)CN(c1ccc(F)cc1)S(=O)(=O)c1ccccc1

>  <cell count>
329

$$$$
>  <compound>
CCOC(=O)C(NC(=O)C1CCCN1C(=O)OCc1ccccc1)C(=O)OCC (stereo unspecified)

>  <cell count>
586

$$$$
>  <compound>
CCSC1=C(C#N)C(c2cccc(OC)c2)CC(=O)N1 (stereo unspecified)

>  <cell count>
667

$$$$
>  <compound>
COc1ccc(S(=O)(=O)NC2CCCCC2)c(C)c1C

>  <cell count>
426

$$$$
>  <compound>
Cc1csc(NC(=O)c2cccc(S(=O)(=O)N3CCCCC3)c2)n1

>  <cell count>
352

$$$$
>  <compound>
Cc1cccc(CS(=O)(=O)Cc2ccc(C(=O)NCC3CCCO3)o2)c1 (stereo unspecified)

>  <cell count>
450

$$$$
>  <compound>
O=C(Cn1c(=O)[nH]c2ccsc2c1=O)NC1CCCCCC1

>  <cell count>
468

$$$$
>  <compound>
COc1cccc(-n2c(C)nc3c(cnn3-c3ccc(C)cc3)c2=O)c1

>  <cell count>
684

$$$$
>  <compound>
Cn1cnnc1SCC(=O)Nc1sc2c(c1C#N)CCCCC2

>  <cell count>
564

$$$$
>  <compound>
COc1ccc(N2CCN(C(=O)CSc3ccccc3N)CC2)cc1

>  <cell count>
334

$$$$
>  <compound>
O=C(Nc1nncs1)c1ccccc1NS(=O)(=O)c1cccs1

>  <cell count>
326

$$$$
>  <compound>
COc1ccc(CN(C)CC(=O)c2c(N)n(Cc3ccccc3)c(=O)n(C)c2=O)c(OC)c1

>  <cell count>
459

$$$$
>  <compound>
Cn1c(=O)c2c(nc(SCc3nn[nH]n3)n2Cc2ccccc2F)n(C)c1=O

>  <cell count>
481

$$$$
>  <compound>
CCN(CCNC(=O)C1CCN(S(=O)(=O)CC)CC1)c1ccccc1

>  <cell count>
446

$$$$
>  <compound>
Cc1cc(C)c(NC(=O)C2CCCN2CCO)c(C)c1 (stereo unspecified)

>  <cell count>
553

$$$$
>  <compound>
CC1CCN(C(=S)c2ccccc2O)CC1

>  <cell count>
713

$$$$
